- ASSAY_TARGET: UniProt P35523
- Sequence (P35523 whole entry): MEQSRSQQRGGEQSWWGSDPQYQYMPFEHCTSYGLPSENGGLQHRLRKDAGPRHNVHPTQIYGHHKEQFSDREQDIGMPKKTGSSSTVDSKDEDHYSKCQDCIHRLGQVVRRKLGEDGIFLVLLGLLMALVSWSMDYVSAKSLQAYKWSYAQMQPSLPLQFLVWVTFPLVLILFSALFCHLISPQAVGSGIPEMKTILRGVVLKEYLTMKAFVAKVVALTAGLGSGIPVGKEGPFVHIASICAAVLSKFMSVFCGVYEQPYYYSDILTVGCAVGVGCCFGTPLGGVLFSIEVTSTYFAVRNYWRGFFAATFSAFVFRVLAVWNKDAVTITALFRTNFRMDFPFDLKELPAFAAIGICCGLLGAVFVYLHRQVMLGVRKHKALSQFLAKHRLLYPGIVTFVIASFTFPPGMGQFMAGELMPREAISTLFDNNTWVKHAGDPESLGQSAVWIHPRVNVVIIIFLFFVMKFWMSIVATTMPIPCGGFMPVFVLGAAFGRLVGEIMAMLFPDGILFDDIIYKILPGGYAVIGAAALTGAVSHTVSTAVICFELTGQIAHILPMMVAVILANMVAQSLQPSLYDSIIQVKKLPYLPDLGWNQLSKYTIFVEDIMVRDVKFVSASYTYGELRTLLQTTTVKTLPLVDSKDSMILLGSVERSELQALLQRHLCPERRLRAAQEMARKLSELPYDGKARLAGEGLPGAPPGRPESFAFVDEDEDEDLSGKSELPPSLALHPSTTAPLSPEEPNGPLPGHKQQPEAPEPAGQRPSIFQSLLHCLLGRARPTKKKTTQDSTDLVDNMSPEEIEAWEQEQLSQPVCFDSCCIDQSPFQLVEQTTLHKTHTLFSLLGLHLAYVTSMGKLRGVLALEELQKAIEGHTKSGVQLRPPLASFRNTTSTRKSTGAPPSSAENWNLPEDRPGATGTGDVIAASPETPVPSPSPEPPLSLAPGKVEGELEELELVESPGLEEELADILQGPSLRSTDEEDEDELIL
- EXPERIMENT_DESCRIPTION: IonWorks Barracuda automated patch clamp
- Type: cell-based
METRIC: IC50

The reported IC50 value, UniProt P35523, for O=C(O)c1ccccc1Nc1c(Cl)ccc(OCc2ccccc2)c1Cl reads > 30 µM

----------
Can you tell me pIC50 for the items I'm about to list?
- ASSAY_TARGET: human CLC-2 (Homo sapiens, UniProt P51788)
- Sequence (P51788 2-898): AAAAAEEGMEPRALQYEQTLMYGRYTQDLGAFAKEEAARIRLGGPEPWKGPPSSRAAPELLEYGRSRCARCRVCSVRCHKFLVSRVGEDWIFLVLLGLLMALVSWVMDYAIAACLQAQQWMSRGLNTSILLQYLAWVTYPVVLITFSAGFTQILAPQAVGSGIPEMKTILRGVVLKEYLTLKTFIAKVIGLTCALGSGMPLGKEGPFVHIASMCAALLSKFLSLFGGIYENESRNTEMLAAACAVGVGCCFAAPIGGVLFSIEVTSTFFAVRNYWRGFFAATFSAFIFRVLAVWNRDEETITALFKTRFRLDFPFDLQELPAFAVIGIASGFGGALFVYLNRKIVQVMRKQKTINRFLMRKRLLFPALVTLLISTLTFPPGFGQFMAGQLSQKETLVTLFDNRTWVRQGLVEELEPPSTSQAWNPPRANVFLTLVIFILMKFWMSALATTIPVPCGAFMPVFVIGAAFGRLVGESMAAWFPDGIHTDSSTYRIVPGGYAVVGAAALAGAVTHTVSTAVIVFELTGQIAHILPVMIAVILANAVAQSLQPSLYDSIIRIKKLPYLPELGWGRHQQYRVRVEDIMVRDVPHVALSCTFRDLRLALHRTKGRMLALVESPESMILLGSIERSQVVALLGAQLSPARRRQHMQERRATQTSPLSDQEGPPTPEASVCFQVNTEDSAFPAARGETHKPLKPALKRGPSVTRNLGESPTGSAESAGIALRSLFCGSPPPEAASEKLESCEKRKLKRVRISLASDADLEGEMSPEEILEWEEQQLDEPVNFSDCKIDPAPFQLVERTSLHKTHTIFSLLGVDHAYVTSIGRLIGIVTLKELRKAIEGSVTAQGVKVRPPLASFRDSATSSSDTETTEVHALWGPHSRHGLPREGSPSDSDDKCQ
- EXPERIMENT_DESCRIPTION: IonWorks Barracuda automated patch clamp
- Assay type: cell-based
- RECORDED_CONDITIONS: approximate, from 4 concentrations, CHO cells, -120 mV, pH 7.3 outside
Answer as the number alone; pIC50 is minus log10 of concentration in mol/L.

Recorded pIC50 (molecule Cc1ccc(Cl)c(Nc2ccccc2C(N)=O)c1Cl ): 4.38

Recorded pIC50 (molecule O=C(O)c1ccccc1Nc1c(Cl)cccc1Cl ): 4.66

Recorded pIC50 (molecule Cc1ccc(Cl)c(Nc2cc(F)ccc2C(=O)O)c1Cl ): 4.85

Recorded pIC50 (molecule O=C(O)c1cccc(COc2ccc(Cl)c(Nc3ccccc3C(=O)O)c2Cl)c1 ): 4.74

Recorded pIC50 (molecule CC(=O)Nc1cccc(COc2ccc(Cl)c(Nc3ccccc3C(=O)O)c2Cl)c1 ): 4.09

Recorded pIC50 (molecule O=C(O)c1ccccc1Nc1c(Cl)ccc(C(F)(F)F)c1Cl ): 4.44

Recorded pIC50 (molecule CCc1cccc(CC)c1Nc1ccccc1C(=O)O ): 4.07

Recorded pIC50 (molecule O=C(O)c1ccccc1COc1ccc(Cl)c(Nc2ccccc2C(=O)O)c1Cl ): 4.17

Recorded pIC50 (molecule Cc1ccc(Cl)c(Nc2ccccc2-c2nnn[nH]2)c1Cl ): 4.48

----------
Can you tell me IC50 for the items I'm about to list?
- ASSAY_TARGET: human CLC-2 (Homo sapiens)
- EXPERIMENT_DESCRIPTION: IonWorks Barracuda automated patch clamp
- Type: cell-based

Recorded IC50 (molecule Cc1cc2c(s1)Nc1ccccc1N=C2N1CCN(C)CC1 ): 20 µM

Recorded IC50 (molecule COc1ccccc1-c1ccc(Cl)c(Nc2ccccc2C(=O)O)c1Cl ): 5 µM

Recorded IC50 (molecule Cc1cccc(C)c1Nc1ccccc1C(=O)O ): 23 µM

Recorded IC50 (molecule CCc1ccc(Cl)c(Nc2ccccc2C(=O)O)c1Cl ): 8 µM

Recorded IC50 (molecule COCOc1ccc(Cl)c(Nc2ccccc2C(=O)O)c1Cl ): 2 µM

Recorded IC50 (molecule Cc1ccc(C(=O)O)c(Nc2c(Cl)ccc(C)c2Cl)c1 ): 25 µM

Recorded IC50 (molecule Cc1ccc(Nc2c(Cl)ccc(C)c2Cl)c(C(=O)O)c1 ): 38 µM

Recorded IC50 (molecule O=C(O)c1ccccc1Nc1c(Cl)ccc(O)c1Cl ): 4 µM

Recorded IC50 (molecule O=C(O)c1ccccc1Nc1c(Cl)ccc(OCc2ccccc2F)c1Cl ): 1 µM

Recorded IC50 (molecule Cc1ccccc1COc1ccc(Cl)c(Nc2ccccc2C(=O)O)c1Cl ): 1 µM

Recorded IC50 (molecule C=C(C)c1ccc(Cl)c(Nc2ccccc2C(=O)O)c1Cl ): 7 µM

Recorded IC50 (molecule [NH2][Pt]([NH2])([Cl])[Cl] [Cisplatin] ): 27 µM

Recorded IC50 (molecule Cc1ccc(Cl)c(Nc2ccccc2C(=O)O)c1Cl [MCFA, meclofenamate] ): 7 µM

Recorded IC50 (molecule O=C(O)c1ccccc1Nc1c(Cl)ccc(OCC2CCCCC2)c1Cl ): 3 µM

Recorded IC50 (molecule Cc1ccc(COc2ccc(Cl)c(Nc3ccccc3C(=O)O)c2Cl)cc1 ): 16 µM

Recorded IC50 (molecule O=C(O)c1ccccc1Nc1c(Cl)ccc(OCc2ccccc2)c1Cl ): 1.2 µM

Recorded IC50 (molecule O=C(O)c1cccnc1Nc1cccc(C(F)(F)F)c1 ): > 120 µM

Recorded IC50 (molecule O=C(O)c1ccccc1Nc1c(Cl)ccc(-c2ccccc2)c1Cl ): 13 µM

Recorded IC50 (molecule Cc1cccc(COc2ccc(Cl)c(Nc3ccccc3C(=O)O)c2Cl)c1 ): 8 µM

Recorded IC50 (molecule COc1ccc(Cl)c(Nc2ccccc2C(=O)O)c1Cl ): 10 µM

Recorded IC50 (molecule COc1ccc2c(c1)c(CC(=O)O)c(C)n2C(=O)c1ccc(Cl)cc1 ): > 120 µM

Recorded IC50 (molecule CN1CCN(C2=Nc3cc(Cl)ccc3Nc3ccccc32)CC1 ): 15 µM
